Experiment: NCI Yeast Anticancer Drug Screen. Data for the mec2-1 strain (AID 157)
Settings: S. cerevisiae mec2-1 strain, at 50.0 µM, hits give high values
Compounds without any hit were thinned out: in the full panel of roughly 79,000, 15% have a hit. Activity calls are given as the source filed them. Cut-off read from the data, not from the text of the source: active = growth inhibition above about 70%; inactive = the rest.
Please go through the items and note down their growth inhibition.

## Input # get_value(readout='growth inhibition', item= C(=NC1CCCCC1)c1c[nH]c2ccccc12 )
## Output -39.6% (inactive)

## Input Any idea what its growth inhibition is? The compound is CN1CCC(OC(=O)Oc2ccccc2)(c2ccccc2)CC1
## Output 9.6% (inactive)

## Input GET /values?readout=growth inhibition&item= COc1ccc(NC(=O)C(=O)C(CC2C(=O)NC(=S)NC2=O)C(=O)c2ccc3ccccc3c2)c([N+](=O)[O-])c1 (configuration not stated)
## Output 1.35% (inactive)

## Input For the compound CC1(C)N=C(N)N=C(N)N1c1ccc(CCCCc2ccccc2S(=O)(=O)F)c(Cl)c1 , what growth inhibition is on record?
## Output 99.7% (active)

## Input # query: growth inhibition of entry CCCCCCCCCCC(=O)O.[Pb]
## Output 5.05% (inactive)

## Input # query: growth inhibition of entry ClCCOCOCCCl
## Output -7.1% (inactive)

## Input Given Cc1cc(N(CCCl)CCCl)ccc1C=Nc1ccc(F)cc1[N+](=O)[O-] , state its recorded growth inhibition.
## Output 3.1% (inactive)

## Input Which growth inhibition is reported for this compound? O=c1c2ccccc2sc2c1c(N(CCCl)CCCl)cc1ccccc12
## Output 5.5% (inactive)

## Input What does the record list as growth inhibition for COc1ccc(P2(=S)OC(C)(C)C(C)(C)O2)cc1 ?
## Output -16.2% (inactive)

## Input Reported growth inhibition, compound O=[N+]([O-])c1ccc([As](=O)(O)c2cccc([N+](=O)[O-])c2)cc1 : ____
## Output 1.3% (inactive)

## Input Which measured growth inhibition value corresponds to CC(C)C(Br)C(N)=O (configuration not stated) ?
## Output -31.1% (inactive)

## Input For OCC12COCN1COC2 , what is its reported growth inhibition?
## Output -15.9% (inactive)

## Input Consider the compound CN(C)P(=O)(N(C)C)N1CCCCCC1 and give its measured growth inhibition.
## Output -21.6% (inactive)

## Input Look up growth inhibition: O=C(Cc1c2ccccc2cc2c1ccc1ccccc12)N(CCCl)CCCl
## Output 99.3% (active)

## Input If you can, please state the reported growth inhibition value of C#C[C@]1(O)CC[C@H]2[C@@H]3CCC4=C/C(=N/OC(=O)c5cccc6c(=O)c7ccccc7[nH]c56)CCC4[C@H]3CC[C@@]21CC (some centres not stated) .
## Output -35% (inactive)

## Input I have this compound here, C[CH2][Sn]1([CH2]C)[O]C(=O)CC(=O)[O]1 , and I need its recorded growth inhibition.
## Output 70.6% (active)

## Input Dear colleague, I am looking for the recorded growth inhibition of the following compound: CC1(C)CCCC(C)(C)N1[P-]C(=O)[P-]N1C(C)(C)CCCC1(C)C.[C-]#[O+].[C-]#[O+].[C-]#[O+].[C-]#[O+].[C-]#[O+].[C-]#[O+].[Fe].[Fe] (configuration not stated)
## Output 3.65% (inactive)

## Input For the compound shown here, COc1ccc(C(=O)O)cc1OC , give the reported growth inhibition.
## Output 9.45% (inactive)

## Input Quick check: growth inhibition of CC1CC[N-]C(C)C1.CN(C)C=O.[Cl][Pt][Cl] (configuration not stated) ?
## Output 92.2% (active)

## Input Dear colleague, I am looking for the recorded growth inhibition of the following compound: CN(C)S(=O)(=O)N(SC(F)(Cl)Cl)c1ccccc1
## Output 99.5% (active)

## Input Endpoint output: growth inhibition of O=c1[nH]c2ccc([As](=O)(O)O)cc2[nH]1 . Value?
## Output -1.1% (inactive)

## Input growth inhibition lookup needed for COC(=O)C1C(c2ccc(-c3ccccc3)cc2)N1C1CCCCC1 (configuration not stated) , thanks.
## Output 19.8% (inactive)

## Input Quick one: growth inhibition of COc1cccc(C2(C#N)CCN(C)CC2)c1 ?
## Output 23.1% (inactive)

## Input For the compound O=c1[nH]c2ccccc2c(=O)n1-c1ccccc1 , what growth inhibition is on record?
## Output -4.45% (inactive)

## Input growth inhibition lookup needed for CCC[CH2][Sn]1([CH2]CCC)[O]CC(COc2c(Cl)cc(Cl)cc2Cl)[O]1 (configuration not stated) , thanks.
## Output 91.3% (active)

## Input Need growth inhibition of CCCCCCCCCCCC[C@@H](O)[C@H]1CC[C@H]([C@H](O)CCCC[C@H](O)CCCCC[C@@H](O)CC2=C[C@H](C)OC2=O)O1 , thanks.
## Output -7.05% (inactive)

## Input Look up growth inhibition: [CH3][Sn]([c]1ccccc1)[c]1ccccc1
## Output 2.5% (inactive)

---

Test: NCI Yeast Anticancer Drug Screen. Data for the sgs1 mgt1 strain (AID 161);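 note: 0% = growth of cultures given vehicle only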
Details: S. cerevisiae sgs1 mgt1 strain, at 50.0 µM, hits give high values
Compounds without any hit were thinned out: in the full panel of roughly 79,000, 15% have a hit.
Quick rule for you: growth inhibition at 10% or higher means t, lower means f.

## Input Decide: growth inhibition of Clc1cc[c]([Sn]([Cl])([c]2ccc(Cl)cc2)[c]2ccc(Cl)cc2)cc1 >= 10%?
## Output t

## Input Assess whether reported growth inhibition for Brc1ccc(NP(Br)(c2ccccc2)(c2ccccc2)c2ccccc2)cc1 sits at 10% or higher.
## Output t

## Input Entry O=c1[nH]c2ccccc2c(=O)n1-c1ccccc1 : is its growth inhibition no less than 10%?
## Output f

## Input Is the recorded value of growth inhibition equal to or greater than 10% for this compound? CCN1CCC(OC(=O)c2ccccc2)(c2nccc3ccccc23)CC1
## Output f

## Input Reported growth inhibition reaches at least 10% for CC1C/C(=C\N=[N+]=[N-])C(=O)O1 (stereo not drawn) ?
## Output f

## Input Can O=[N+]([O-])c1ccc(Br)c([N+](=O)[O-])c1 be said to have growth inhibition at or above 10%?
## Output t

## Input Would you say c1c[nH]c(Cc2ncc(Cc3cnc[nH]3)[nH]2)n1 shows growth inhibition at minimum 10%?
## Output f

---

Test: NCI Yeast Anticancer Drug Screen. Data for the bub3 strain (AID 167)
Details: S. cerevisiae bub3 mutant strain, at 50.0 µM
Compounds without any hit were thinned out: in the full panel of roughly 79,000, 15% have a hit. The source made the active and inactive calls. No stated cut-off is given here; in the data, active means growth inhibition above about 70%; inactive means the rest.
Give your call using only these classes: yes for active, no for inactive

## Input Kindly provide the recorded test outcome for the following compound: FC(F)(F)C1(F)N(Cc2ccccc2)C1(F)C(F)(F)F (centres undefined)
## Output no

## Input Per the assay record, what outcome was assigned to COc1cccc(C(O)CN(C)C)c1OC (centres undefined) ?
## Output no

## Input Field: outcome | Entry: CC(=O)O.[RuH].c1ccc([PH+](c2ccccc2)c2ccccc2)cc1.c1ccc([PH+](c2ccccc2)c2ccccc2)cc1.c1ccc([PH+](c2ccccc2)c2ccccc2)cc1
## Output yes

## Input GET /call?item= CN(C)C(=O)CCl returns the recorded outcome of this test.
## Output no

## Input Name the outcome recorded for CC1C(=O)OC2CC[N+]3([O-])CC=C(COC(=O)C(C)(O)C1(C)O)C23 (centres undefined) in the assay.
## Output no

## Input For this compound, state the assay outcome: COc1ccc(P2(=S)Oc3ccc(C(c4ccccc4)(c4ccccc4)c4ccccc4)cc3O2)cc1 (centres undefined)
## Output no

## Input What call does the record list for O=c1c2cc(Br)cc(Br)c2[nH]c(=S)n1-c1ccccc1 ?
## Output no

## Input Field: outcome | Entry: Nc1nc(N)c(-c2ccc(Cl)c(Cl)c2)c(COc2cccc(CNS(=O)(=O)c3cccc(S(=O)(=O)F)c3)c2)n1
## Output yes

## Input Query: recorded result category for O=C1C=C(N2CC2)C(=O)C=C1N1CC1 in this test
## Output yes

## Input Check the results log: what was the call for CCCCCN1C(=O)C2C(C1=O)C1(Cl)C(Cl)=C(Cl)C2(Cl)C1(Cl)Cl (centres undefined) ?
## Output yes

## Input Please indicate how the test categorized Nc1ccc(Cl)c(C(F)(F)F)c1 .
## Output no

## Input Tell me the recorded outcome of this test for CCCCCCCCCCNP(=S)(NCCCCCCCCCC)c1ccccc1 .
## Output no

## Input // param item: C=CCn1cc2c3c(cccc31)C1CC(C)CN(C)C1C2 (centres undefined) ; yields the recorded call
## Output no

## Input Given CCOP(=O)(CC(=O)c1ccccc1)OCC , state the outcome it received in this test.
## Output no

## Input Could you check what this test reported for O=C(NC(Cc1ccccc1)C(=O)N(CCCl)CCCl)c1ccccc1 (centres undefined) ?
## Output no

## Input How was CCOC(=O)C1(C#N)C(C#N)(C#N)C12CCCCC2 (centres undefined) (tested in a mixture with another compound) classified in this test?
## Output no

## Input For Cc1cc(CCN)c(C)c2c1sc1ccccc12 , what call appears in the results of this test?
## Output yes

## Input Record request — test call for CCCCCCCCCCC[CH2][Hg][CH2]CCCCCCCCCCC
## Output no

## Input Record request — test call for NCCC1CCc2[nH]c3ccccc3c2C1 (centres undefined)
## Output no

## Input State the result this test recorded for Sc1ccccc1.[Ag] .
## Output yes

## Input Check the results log: what was the call for CC[N+]1(CC)CC[N+](CC)(CC)CC1 ?
## Output no

## Input Identify the outcome logged in this assay for the compound shown: O=C(CCl)Nc1ccccc1Cl
## Output no

## Input Could you please tell me the result logged for CCCCCCCCCCCCCC[As](=O)(O)O in this assay?
## Output no

## Input Test call, this compound: O=C(N/N=C/c1cc(Br)cc(Br)c1[O-])c1ccccc1O.O=C(N/N=C/c1cc(Br)cc(Br)c1[O-])c1ccccc1O.[Co+2]
## Output yes

## Input What was the test verdict on O=[N+]([O-])c1cccc2cccc([N+](=O)[O-])c12 ?
## Output no

## Input Recorded call for N#Cc1cccc([N+](=O)[O-])c1 ?
## Output no

## Input # lookup: test call for CC(C)(OOC(C)(C)c1ccccc1)c1ccccc1
## Output no

## Input What classification did COc1c2c(nc3ccccc13)-c1cc3c(c(=O)n1C2)COC(=O)C3(O)CC(=O)N1CCOCC1 (centres undefined) end up with in this test?
## Output no

## Input I would be grateful if you could indicate the recorded call for CCN(CC)C(=O)N1CN(c2ccccc2)C2(CCN(CCCC3(c4ccc(F)cc4)OCCO3)CC2)C1=O .
## Output no

## Input Each compound tested received a call. Report the one for CCCCCCCCCCCCCC(=O)[O][Hg][c]1ccccc1 .
## Output yes

## Input # outcome recorded in this test, key = Cc1cc(N(CCCl)CCCl)ccc1C1N(Cc2ccc(N(C)C)cc2)CCN1Cc1ccc(N(C)C)cc1
## Output no

## Input Call for entry CC1=NN(c2ccccc2)C(=O)C1N=Nc1ccc([As](=O)(O)O)c(O)c1 (centres undefined) :
## Output no

## Input How was CC12CCC3C(CC=C4CC(=O)CCC43CCO)C1CCC2Oc1ccccc1 (centres undefined) classified in this test?
## Output no

## Input Write down the call the test reported for this compound. Item: CN(C)CCC(C)(C#N)c1ccccc1 (centres undefined)
## Output no

## Input Record request — test call for CN(C)c1ccc2c(c1)Cc1ccccc1-2
## Output no

## Input Outcome? O=C(CF)[O][Sb]([O]C(=O)CF)([c]1ccccc1)([c]1ccccc1)[c]1ccccc1
## Output no

## Input Could you check what this test reported for NC(N)=Nc1c(N)ncnc1N ?
## Output no

## Input Hi team, can someone confirm the assay call for CC1CN1P1(N2CC2C)=NP(N2CC2C)(N2CC2C)=NP(N2CC2C)(N2CC2C)=N1 (centres undefined) ?
## Output no

## Input I'd appreciate the recorded outcome for CCNC(Cc1ccccc1)c1ccco1 (centres undefined) from this test.
## Output no
